# Tested on: CAKI-1 renal
# Run Description: NCI tumour cell line growth inhibition, 48 h
Measure Name: GI50

1) O=C(CN1C(=O)S/C(=C\C(Cl)=C\c2ccccc2)C1=O)NC1C=CS(=O)(=O)C1 (centres undefined) :: 1650 nM
2) COc1ccc2c(OCc3nnc4ccc(-c5ccccc5)nn34)ccnc2c1 :: > 100000 nM
3) CCOC(=O)c1cnc2c(C)cccc2c1Nc1ccc(C(C)=O)cc1 :: 79000 nM
4) CN(Cc1cnc2nc(N)nc(N)c2n1)c1ccc(C(=O)NC(CCC(=O)O)C(=O)O)cc1Br (centres undefined) :: < 10 nM
5) Oc1[nH]c2ccccc2c1/C=c1/cc2c(c(-c3ccc(F)cc3)n1)=Nc1ccccc1-2 :: 1290 nM
6) CC[C@H](C)[C@H](NC(=O)[C@H]1CCCCN1C)C(=O)N(C)[C@H](C[C@@H](OC(C)=O)c1nc(C(=O)N[C@@H](Cc2ccccc2)C[C@H](C)C(=O)O)cs1)C(C)C :: 1.97 nM
7) CC(=O)c1c(C)[nH]c(-c2nc3ccc(N4CCN(C)CC4)cc3[nH]2)c1-c1ccccc1 :: 212 nM
8) COc1ccc(N(C)c2nc(N)nc3sc4c(c23)CCCC4)cc1 :: < 13.7 nM
9) CC(=O)[O][Hg][c]1c(C)c(C)cc(C)c1C :: 2030 nM
10) CN1CSC(=S)N(Cc2ccccc2)C1 :: 34600 nM
11) Cn1cc(C2=C(c3cn(CCCCCSC(=N)N)c4ccccc34)C(=O)NC2=O)c2ccccc21 :: 4030 nM
12) c1ccc2c3c([nH]c2c1)C(c1ccc(C2NCCc4c2[nH]c2ccccc42)cc1)NCC3 (centres undefined) :: 1660 nM
13) CCC(=O)c1c(C(F)(F)F)n([O-])c2cc(F)c(F)cc2[n+]1=O :: 329 nM
14) COc1cc2cc(Oc3ccc(NC(=O)Nc4ccc(Cl)c(Cl)c4)cc3)c(C)nc2cc1OC :: 2120 nM

====

# Tested on: RPMI-8226 leukemia
# Run Description: NCI tumour cell line growth inhibition, 48 h
Measure Name: TGI (µM)

1. COc1ccc(N(C)c2nc(N)nc3sc4c(c23)CCCC4)cc1 :: 15.6
2. c1cnc(N2CCN(Cc3c[nH]c4ccccc34)CC2)nc1 :: 63.7
3. COc1ccc(/C=C/C2=NN(c3cccc(S(=O)(=O)O)c3)C3(C2)SCC(=O)N3c2nc3ccccc3s2)cc1 (stereo not given) :: 84.5

====

# Test system: A549 NSCLC
# Run Description: NCI tumour cell line growth inhibition, 48 h
Below, each of the compounds is paired with its reported TGI value.
Measure Name: TGI

1. COc1cc(C2c3cc4c(cc3OC(N3CCNCC3)C2C)OCO4)cc(OC)c1OC (stereo not given) :: > 53.9 µM
2. CC[C@H](C)[C@H](NC(=O)[C@H]1CCCCN1C)C(=O)N(C)[C@H](C[C@@H](OC(C)=O)c1nc(C(=O)N[C@@H](Cc2ccccc2)C[C@H](C)C(=O)O)cs1)C(C)C :: > 16.5 µM
3. c1cnc(N2CCN(Cc3c[nH]c4ccccc34)CC2)nc1 :: > 100 µM
4. Cc1nc2c(=S)n(C)ncc2[nH]1 :: > 100 µM
5. CN(C)CCNC(=O)c1cccc2c1Oc1c(cccc1[N+](=O)[O-])O2 :: 3.42 µM
